src = ChEMBL document CHEMBL1132718

tested on: Rattus norvegicus; assay: Percent of variation of glycemia value 30 mins after glucose administration by intraperitoneal dose of 100 uM/Kg to STZ rats compared to untreated rats; type: functional; parameters: unit: %
Please enter 1.0 where G30 is greater than or equal to 40, and 0.0 where it is lower.

CN1CCN(Cc2ccccc2Cl)C(C2=NCCO2)C1 (stereo not given) : 0.0
c1ccc(C(CC2=NCCN2)c2ccccn2)cc1 (stereo not given) : 1.0

Kindly determine if G30 recorded for C=CCN1CCN(CC=C)C(C2=NCCN2)C1 (stereo not given) is above or exactly 40. 0.0

Kindly determine if G30 recorded for CN1CCN(Cc2ccc(Cl)cc2Cl)C(C2=NCCN2C)C1 (stereo not given) is above or exactly 40. 1.0

---

test system: Rattus norvegicus; experiment: Percent of variation of glycemia value 30 mins after glucose administration by intraperitoneal dose of 100 uM/Kg to STZ rats compared to untreated rats; type: functional; set-up: unit: %
measure: G30
Answers are plain numbers.

CN1CCN(c2ccccc2Cl)CC1C1=NCCN1 (stereo unspecified) : 17
CC(C)CN1CCN(CC(C)C)C(C2=NCCN2)C1 (stereo unspecified) : 89
N=C(N)C1CN(Cc2ccccc2)CCN1Cc1ccccc1 (stereo unspecified) : 65
CCC(C)CN1CCN(CC(C)CC)C(C2=NCCN2)C1 (stereo unspecified) : 83

Okay, here is my list. What is G30 for each of these?
1. CC(C)N1CCN(c2ccccc2)CC1C1=NCCN1 (stereo unspecified)
2. CN1CCN(C(C2CC2)C2CC2)C(C2=NCCN2)C1 (stereo unspecified)
3. CN1CCN(Cc2ccc(Cl)cc2Cl)C(C2=NCCCN2)C1 (stereo unspecified)
4. CN1CCN(Cc2ccc(Cl)cc2Cl)C(CC2=NCCN2)C1 (stereo unspecified)
5. C/N=C(/N)C1CN(Cc2ccccc2)CCN1Cc1ccccc1 (stereo unspecified)

1. 15
2. 55
3. 30
4. 42
5. 62

Okay, here is my list. What is G30 for each of these?
1. C=C(C)CN1CCN(CC(=C)C)C(C2=NCCN2)C1 (stereo unspecified)
2. CC(C)CN1CCN(C)CC1C1=NCCN1 (stereo unspecified)
3. C=CCN1CCN(CC(C)C)C(C2=NCCN2)C1 (stereo unspecified)
4. c1ccc2c(c1)OCC(C1=NCCN1)O2 (stereo unspecified)
5. C1CCC(N2CCN(C3CCCC3)C(C3=NCCN3)C2)C1 (stereo unspecified)

96
48
55
48
103

Okay, here is my list. What is G30 for each of these?
1. CC(C)N1CCN(C(C)C)C(CC2=NCCN2)C1 (stereo unspecified)
2. CC(C)CN1CCN(C)C(C2=NCCN2)C1 (stereo unspecified)
3. CC(C)N1CCN(c2ccccc2)C(C2=NCCN2)C1 (stereo unspecified)
4. CC(C)(C)CN1CCN(CC(C)(C)C)C(C2=NCCN2)C1 (stereo unspecified)
5. C1CNC(C2CN(C(C3CC3)C3CC3)CCN2C(C2CC2)C2CC2)=N1 (stereo unspecified)
6. CC(C)N1CCN(C(C)C)C(C2=NCCN2)C1 (stereo unspecified)
7. CN1CCN(c2ccccc2)C(C2=NCCN2)C1 (stereo unspecified)

1. 0
2. 21
3. 91
4. 81
5. 89
6. 89
7. 28

Okay, here is my list. What is G30 for each of these?
1. CN1CCN(Cc2ccc(Cl)cc2Cl)C(c2ncc[nH]2)C1 (stereo unspecified)
2. COc1ccccc1CN1CCN(C)CC1CC1=NCCN1 (stereo unspecified)
3. C/N=C(/N)C1CN(C(C)C)CCN1C(C)C (stereo unspecified)

1. 14
2. 36
3. 77

Okay, here is my list. What is G30 for each of these?
1. c1ccc(CN2CCN(Cc3ccccc3)C(CC3=NCCN3)C2)cc1 (stereo unspecified)
2. CN1CCN(Cc2ccc(Cl)cc2Cl)C(C2=NCCN2)C1 (stereo unspecified)

1: 0; 2: 112

---

Assign K to each entry below.
tested on: Rattus norvegicus; assay: Rate of glucose disappearance between 5 and 30 min after glucose administration with an intraperitoneal administration of 100 (umol/kg) to STZ rats; assay type: functional, organism-based
One number for each entry.

// known answers, use as guide
CC(C)(C)CN1CCN(CC(C)(C)C)C(C2=NCCN2)C1 (configuration not stated) : 67
CN1CCN(c2ccccc2Cl)CC1C1=NCCN1 (configuration not stated) : 60
C=C(C)CN1CCN(CC(C)C)C(C2=NCCN2)C1 (configuration not stated) : 76
CN1CCN(c2ccccc2)C(C2=NCCN2)C1 (configuration not stated) : 39
C1CCC(N2CCN(C3CCCC3)C(C3=NCCN3)C2)C1 (configuration not stated) : 23

Okay, here is my list. What is K for each of these?
1. C/N=C(/N)C1CN(Cc2ccccc2)CCN1Cc1ccccc1 (configuration not stated)
2. CC(C)CN1CCN(C)C(C2=NCCN2)C1 (configuration not stated)

1: 60; 2: 42

Okay, here is my list. What is K for each of these?
1. CC(C)N1CCN(C(C)C)C(CC2=NCCN2)C1 (configuration not stated)
2. CN1CCN(Cc2ccc(Cl)cc2Cl)C(CC2=NCCN2)C1 (configuration not stated)

79
91

Okay, here is my list. What is K for each of these?
1. CN1CCN(Cc2ccc(Cl)cc2Cl)C(c2ncc[nH]2)C1 (configuration not stated)
2. c1ccc2c(c1)OCC(C1=NCCN1)O2 (configuration not stated) [IDAZOXAN]
3. CN1CCN(Cc2ccc(Cl)cc2Cl)C(C2=NCCN2C)C1 (configuration not stated)

37
79
64

---

Assign G30 to each entry below.
tested on: Rattus norvegicus; assay: Percent of variation of glycemia value 30 mins after glucose administration with a peroral administration of 100 umol/kg to STZ rats; type: functional; set-up: unit: %
Give bare numbers.

CCC(C)CN1CCN(CC(C)CC)C(C2=NCCN2)C1 (stereo unspecified) : 4.3
C=CCN1CCN(CC(C)C)C(C2=NCCN2)C1 (stereo unspecified) : 23
CC(C)CN1CCN(CC(C)C)C(C2=NCCN2)C1 (stereo unspecified) : 66

Okay, here is my list. What is G30 for each of these?
1. CC(C)N1CCN(C(C)C)C(C2=NCCN2)C1 (stereo unspecified)
2. C=C(C)CN1CCN(CC(=C)C)C(C2=NCCN2)C1 (stereo unspecified)
3. CN1CCN(Cc2ccc(Cl)cc2Cl)C(C2=NCCN2)C1 (stereo unspecified)

1: 73; 2: 0; 3: 64

---

system: Rattus norvegicus; experiment: Rate of glucose disappearance between 5 and 30 min after glucose administration with an intraperitoneal administration of 100 (umol/kg) to STZ rats; format: functional, organism-based
measure: K
Give bare numbers.

// known answers, use as guide
CCC(C)CN1CCN(CC(C)CC)C(C2=NCCN2)C1 (configuration not stated) : 82
C=C(C)CN1CCN(CC(=C)C)C(C2=NCCN2)C1 (configuration not stated) : 117
CC(C)CN1CCN(CC(C)C)C(C2=NCCN2)C1 (configuration not stated) : 79
CC(C)N1CCN(C(C)C)C(C2=NCCN2)C1 (configuration not stated) : 47
C/N=C(/N)C1CN(C(C)C)CCN1C(C)C (configuration not stated) : 62

Okay, here is my list. What is K for each of these?
1. COc1ccccc1CN1CCN(C)CC1CC1=NCCN1 (configuration not stated)
2. CN1CCN(Cc2ccc(Cl)cc2Cl)C(C2=NCCCN2)C1 (configuration not stated)
3. C1CNC(C2CN(C(C3CC3)C3CC3)CCN2C(C2CC2)C2CC2)=N1 (configuration not stated)

53
38
41

Okay, here is my list. What is K for each of these?
1. C=CCN1CCN(CC(C)C)C(C2=NCCN2)C1 (configuration not stated)
2. c1ccc(CN2CCN(Cc3ccccc3)C(CC3=NCCN3)C2)cc1 (configuration not stated)
3. C=CCN1CCN(CC=C)C(C2=NCCN2)C1 (configuration not stated)

1: 61; 2: 49; 3: 35

---

system: Rattus norvegicus; test: Rate of glucose disappearance between 5 and 30 min after glucose administration with an intraperitoneal administration of 100 (umol/kg) to STZ rats; type: functional, organism-based
Assign K to each entry below.

N=C(N)C1CN(Cc2ccccc2)CCN1Cc1ccccc1 (stereo unspecified) : 65
CC(C)N1CCN(c2ccccc2)CC1C1=NCCN1 (stereo unspecified) : 60
CN1CCN(Cc2ccccc2Cl)C(C2=NCCO2)C1 (stereo unspecified) : 0
CN1CCN(C(C2CC2)C2CC2)C(C2=NCCN2)C1 (stereo unspecified) : 47

Okay, here is my list. What is K for each of these?
1. CC(C)N1CCN(c2ccccc2)C(C2=NCCN2)C1 (stereo unspecified)
2. CC(C)CN1CCN(C)CC1C1=NCCN1 (stereo unspecified)

102
55
